The measurements presented in this section are drawn from patent US20240067657A1.

Test system: HCMV Strain AD169 in MRC-5 cells
Test: Viral qPCR assay HCMV (V0/V1, V2/V3), EC50
Assay type: cell-based
Settings: Human betaherpesvirus 5, AD169, MRC5, read-out: HCMV Cell (EC50)
Entries and their measured EC50 follow.
Report the value in nM with no unit label.

Observe how each entry below is paired with its result.
Measured EC50, C[C@@H]1CN(C)CCN1c1cc(C(=O)NCc2ccc(Cl)cc2)nc(-c2cnn(CCO)c2)c1 [Compound 177] : 1410

// COc1cnc(C(=O)NCc2ccc(Cl)cc2)cc1O[C@H]1CCN2C(=O)OC[C@@H]2C1 [Compound 129] : EC50 value = 546

Noted for Cn1cc(-c2cnc(C(=O)NCc3ccc(Cl)cc3)cc2O[C@H]2CCN3C(=O)COC[C@@H]3C2)cn1 (racemic) [Compound 157] : its EC50 reads 901

Further cases:
Value of measured EC50 for the entry C[C@@H]1CN(C)CCN1c1cc(C(=O)NCc2ccc(Cl)cc2)ncc1OCC(F)(F)F [Compound 176] : 2480

###

Examples of molecules with documented EC50 follow.
Test system: HCMV Strain AD169 in MRC-5 cells
Assay: Viral qPCR assay HCMV (V0/V1, V2/V3), EC50
Type: cell-based
Conditions: Human betaherpesvirus 5, AD169, MRC5, viral qPCR assay of Example 191; read-out: HCMV Cell (EC50)
Return type: number; implicit unit nM.

Record excerpt, results attached:
EC50 for Cn1cc(-c2cnc(C(=O)NCc3ccc(F)c(F)c3F)cc2O[C@H]2CCN3C(=O)OC[C@@H]3C2)cn1 is 111

EC50 for O=C(NCc1ccc(Cl)cc1)c1cc(O[C@H]2CCN3C(=O)OC[C@@H]3C2)c(-c2cscn2)cn1 is 115

O=C(NCc1ccc(Cl)cc1)c1cc(O[C@H]2CCN3C(=O)OC[C@@H]3C2)c(-c2cnn(C3CC3)c2)cn1 yielded EC50 of 214

Others:
Documented EC50 of O=C(NCc1ccc(Cl)cc1)c1cc(O[C@H]2CCN3C(=O)OC[C@@H]3C2)c(-c2cnn(C(F)F)c2)cn1 : 180

Short answer for CN(C)CCn1cc(-c2cnc(C(=O)NCc3ccc(Cl)cc3)cc2O[C@H]2CCN3C(=O)OC[C@@H]3C2)cn1 (racemic) : EC50 was 178

Form field EC50, entry CC(=O)N1CCC(Oc2cc(C(=O)NCc3ccc(Cl)cc3)ncc2-c2ccns2)CC1 : 148

Form field EC50, entry N#Cc1cc(O[C@H]2CCN3C(=O)OC[C@@H]3C2)cc(C(=O)NCc2ccc(Cl)cc2)n1 : 1780

###

Molecular target: varicella zoster virus DNA polymerase (Varicella-zoster virus, UniProt P09252)
Sequence (P09252 whole entry): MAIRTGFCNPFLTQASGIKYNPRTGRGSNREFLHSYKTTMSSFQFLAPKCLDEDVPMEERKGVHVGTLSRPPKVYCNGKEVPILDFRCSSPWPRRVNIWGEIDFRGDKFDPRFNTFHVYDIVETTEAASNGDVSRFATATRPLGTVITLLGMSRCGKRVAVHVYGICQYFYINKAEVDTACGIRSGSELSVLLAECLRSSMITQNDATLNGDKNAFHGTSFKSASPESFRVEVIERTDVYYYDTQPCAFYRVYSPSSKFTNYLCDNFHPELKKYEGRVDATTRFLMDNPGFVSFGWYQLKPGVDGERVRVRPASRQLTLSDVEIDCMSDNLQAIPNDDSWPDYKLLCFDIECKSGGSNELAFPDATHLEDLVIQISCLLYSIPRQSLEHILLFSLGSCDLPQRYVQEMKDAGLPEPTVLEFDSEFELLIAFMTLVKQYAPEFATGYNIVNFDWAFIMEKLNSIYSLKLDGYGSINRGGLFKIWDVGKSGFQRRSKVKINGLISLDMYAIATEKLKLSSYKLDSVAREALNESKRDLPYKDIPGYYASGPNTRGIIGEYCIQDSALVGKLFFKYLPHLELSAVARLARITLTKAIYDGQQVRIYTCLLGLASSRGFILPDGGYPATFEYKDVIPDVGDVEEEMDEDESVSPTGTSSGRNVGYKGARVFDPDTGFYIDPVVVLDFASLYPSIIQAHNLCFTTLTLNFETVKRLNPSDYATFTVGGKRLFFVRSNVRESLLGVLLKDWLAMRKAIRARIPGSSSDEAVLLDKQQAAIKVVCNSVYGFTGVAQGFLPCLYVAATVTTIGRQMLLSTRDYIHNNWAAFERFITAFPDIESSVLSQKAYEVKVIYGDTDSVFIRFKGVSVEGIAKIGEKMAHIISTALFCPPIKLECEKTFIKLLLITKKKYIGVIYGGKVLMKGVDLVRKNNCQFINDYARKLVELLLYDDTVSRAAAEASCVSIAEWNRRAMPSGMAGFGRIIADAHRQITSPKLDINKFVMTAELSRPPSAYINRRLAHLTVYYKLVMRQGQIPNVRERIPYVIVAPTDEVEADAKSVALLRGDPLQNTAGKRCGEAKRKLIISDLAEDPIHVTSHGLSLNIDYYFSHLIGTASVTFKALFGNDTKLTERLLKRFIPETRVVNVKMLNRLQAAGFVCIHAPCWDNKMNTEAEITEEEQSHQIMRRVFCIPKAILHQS
This section presents compounds with their documented IC50 values.
Output spec: scalar in nM, unitless text.

The cases that follow already have their IC50 on record.
Reported IC50 (varicella zoster virus DNA polymerase (Varicella-zoster virus, UniProt P09252)) for entry O=C(NCc1ccc(Cl)cc1)c1cc(O[C@H]2CCN3C(=O)OC[C@@H]3C2)c(CN2CCC(O)CC2)cn1 is 41.1

CN(CCCO)Cc1cnc(C(=O)NCc2ccc(Cl)cc2)cc1O[C@H]1CCN2C(=O)OC[C@@H]2C1 tested on varicella zoster virus DNA polymerase (Varicella-zoster virus, UniProt P09252) gave IC50: 152

varicella zoster virus DNA polymerase (Varicella-zoster virus, UniProt P09252) data for O=C(NCc1ccc(Cl)cc1)c1cc(O[C@H]2CCN3C(=O)OC[C@@H]3C2)c(-c2ncco2)cn1 ; its IC50: 20.3

***
Measured IC50 for this entry Cn1cc(-c2cnc(C(=O)NCc3ccc(Cl)cc3)cc2OC2CCN3C(=O)OCC3(C)C2)cn1 (stereo not shown) on varicella zoster virus DNA polymerase (Varicella-zoster virus, UniProt P09252): 19.3

The value of IC50 recorded for CS(=O)(=O)N1CCC(Oc2cc(C(=O)NCc3ccc(Cl)cc3)ncc2Cl)CC1 when tested on varicella zoster virus DNA polymerase (Varicella-zoster virus, UniProt P09252) reads 232

IC50 of CC(=O)N1CCC(Oc2cc(C(=O)NCc3ccc(Cl)cc3)ncc2-c2cnn(CCO)c2)CC1 , assay on varicella zoster virus DNA polymerase (Varicella-zoster virus, UniProt P09252), is 67.5

Reported IC50 (varicella zoster virus DNA polymerase (Varicella-zoster virus, UniProt P09252)) for entry COc1cc(-c2cnc(C(=O)NCc3ccc(Cl)cc3)cc2OC2CCN(C(C)=O)CC2)sn1 is 3.37
